Data credit: patent US20240166765A1

# Tested system: human Tissue Factor on MDA-MB-231 cells (human, UniProt P13726 33-295)
# Experimental details: cell-based or functional assay
Measurement type: % IL8, 40 nM Ab (%)

Binder | Number
25G9 (antibody, human IgG1, kappa, V domains shown) VH: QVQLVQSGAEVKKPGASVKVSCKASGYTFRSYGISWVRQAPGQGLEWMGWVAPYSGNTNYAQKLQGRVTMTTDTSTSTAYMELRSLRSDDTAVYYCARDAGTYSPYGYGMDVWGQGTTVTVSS VL: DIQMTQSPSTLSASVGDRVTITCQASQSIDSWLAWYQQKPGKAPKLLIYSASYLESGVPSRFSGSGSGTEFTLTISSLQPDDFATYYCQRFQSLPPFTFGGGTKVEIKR | 14
25A3 (antibody, human IgG1, kappa, V domains shown) VH: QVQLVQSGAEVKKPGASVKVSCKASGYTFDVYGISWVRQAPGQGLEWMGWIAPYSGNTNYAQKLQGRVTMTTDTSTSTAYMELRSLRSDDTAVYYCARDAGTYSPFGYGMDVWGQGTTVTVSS VL: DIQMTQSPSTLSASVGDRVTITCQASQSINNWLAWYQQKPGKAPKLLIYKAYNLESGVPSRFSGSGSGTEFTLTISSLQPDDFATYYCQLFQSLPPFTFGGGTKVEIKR | 8
39A (antibody, V domains shown, Human anti-TF IgG1) VH: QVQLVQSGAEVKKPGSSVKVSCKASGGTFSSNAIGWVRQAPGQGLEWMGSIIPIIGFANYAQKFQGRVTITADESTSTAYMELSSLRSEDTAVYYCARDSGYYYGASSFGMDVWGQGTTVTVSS VL: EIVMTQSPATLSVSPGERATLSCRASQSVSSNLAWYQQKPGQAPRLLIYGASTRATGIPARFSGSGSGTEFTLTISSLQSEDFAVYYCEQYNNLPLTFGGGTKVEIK | 2
25A (antibody, V domains shown, Human anti-TF IgG1) VH: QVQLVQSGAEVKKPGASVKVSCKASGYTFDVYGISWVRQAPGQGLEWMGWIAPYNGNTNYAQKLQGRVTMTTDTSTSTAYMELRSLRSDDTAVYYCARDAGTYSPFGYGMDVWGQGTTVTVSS VL: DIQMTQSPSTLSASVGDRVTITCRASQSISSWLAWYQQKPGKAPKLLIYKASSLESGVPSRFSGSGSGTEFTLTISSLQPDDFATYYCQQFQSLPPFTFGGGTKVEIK | 8
43B (antibody, V domains shown) VH: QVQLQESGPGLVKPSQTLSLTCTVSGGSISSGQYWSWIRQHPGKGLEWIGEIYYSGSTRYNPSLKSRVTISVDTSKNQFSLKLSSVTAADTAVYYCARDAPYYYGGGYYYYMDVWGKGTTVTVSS VL: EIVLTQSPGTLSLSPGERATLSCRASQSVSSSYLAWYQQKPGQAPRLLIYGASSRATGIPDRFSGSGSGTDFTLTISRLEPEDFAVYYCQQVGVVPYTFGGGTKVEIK | 4
43D (antibody, V domains shown) VH: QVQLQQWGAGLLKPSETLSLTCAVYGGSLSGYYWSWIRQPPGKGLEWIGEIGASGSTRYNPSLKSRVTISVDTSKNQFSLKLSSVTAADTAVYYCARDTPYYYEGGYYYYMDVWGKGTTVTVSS VL: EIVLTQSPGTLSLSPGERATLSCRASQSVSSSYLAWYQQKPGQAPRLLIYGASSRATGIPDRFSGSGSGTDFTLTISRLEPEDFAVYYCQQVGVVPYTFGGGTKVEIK | 5
25G1 (antibody, human IgG1, kappa, V domains shown) VH: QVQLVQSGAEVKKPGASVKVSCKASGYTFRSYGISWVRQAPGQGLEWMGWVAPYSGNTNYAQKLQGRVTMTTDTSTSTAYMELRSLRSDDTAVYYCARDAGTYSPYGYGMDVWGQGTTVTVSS VL: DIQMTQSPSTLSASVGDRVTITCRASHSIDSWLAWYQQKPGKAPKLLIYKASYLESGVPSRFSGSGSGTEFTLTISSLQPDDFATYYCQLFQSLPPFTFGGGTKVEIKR | 8
43B7 (antibody, V domains shown) VH: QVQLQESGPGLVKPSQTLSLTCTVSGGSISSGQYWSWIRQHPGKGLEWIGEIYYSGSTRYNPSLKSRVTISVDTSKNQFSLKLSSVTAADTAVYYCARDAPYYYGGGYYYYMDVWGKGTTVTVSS VL: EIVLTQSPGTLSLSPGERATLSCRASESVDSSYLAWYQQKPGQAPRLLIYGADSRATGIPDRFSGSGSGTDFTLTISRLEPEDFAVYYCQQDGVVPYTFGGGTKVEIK | 4
54E (antibody, V domains shown, Human anti-TF IgG1) VH: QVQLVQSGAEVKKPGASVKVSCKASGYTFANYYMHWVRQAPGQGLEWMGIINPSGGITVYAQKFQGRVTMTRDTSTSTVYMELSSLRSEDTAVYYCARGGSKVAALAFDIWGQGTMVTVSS VL: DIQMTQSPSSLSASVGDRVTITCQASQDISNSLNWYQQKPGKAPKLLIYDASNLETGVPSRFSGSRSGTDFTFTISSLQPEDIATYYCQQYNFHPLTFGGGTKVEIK | 2
25G (antibody, human IgG1, kappa, V domains shown, Human anti-TF IgG1) VH: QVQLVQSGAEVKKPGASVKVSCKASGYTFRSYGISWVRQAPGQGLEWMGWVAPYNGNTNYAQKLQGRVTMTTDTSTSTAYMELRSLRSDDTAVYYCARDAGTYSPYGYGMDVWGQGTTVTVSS VL: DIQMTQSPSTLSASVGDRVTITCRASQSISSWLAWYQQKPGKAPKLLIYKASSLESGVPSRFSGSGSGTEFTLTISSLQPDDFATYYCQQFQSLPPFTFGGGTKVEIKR | 10
25A5 (antibody, human IgG1, kappa, V domains shown) VH: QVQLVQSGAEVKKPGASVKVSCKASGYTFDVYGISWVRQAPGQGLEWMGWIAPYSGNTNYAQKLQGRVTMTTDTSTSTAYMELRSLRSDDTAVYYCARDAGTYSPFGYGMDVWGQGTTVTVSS VL: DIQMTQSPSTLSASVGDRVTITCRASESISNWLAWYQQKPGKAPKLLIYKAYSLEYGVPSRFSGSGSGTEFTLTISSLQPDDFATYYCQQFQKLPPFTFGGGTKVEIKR | 7
